experiment.description: in vitro
test.settings: human, hela cells, % viability
quantity: viability at 28.5 h, 10 µM (%)
All answers are understood in %, so give the number only.

Examples with their reported viability at 28.5 h, 10 µM follow.
Suppose we examine the molecule Cc1cc(C2CCCCCN2C(=O)c2ccccc2F)on1 (stereo not shown) [CBK284842] ; what viability at 28.5 h, 10 µM value has been reported?
94.5

# viability at 28.5 h, 10 µM lookup, item Nc1ccc(-c2cncc(N3CCN(c4ccncc4)CC3)n2)cc1 [CBK065681]
97

What viability at 28.5 h, 10 µM value was documented for this molecule, CC(C)(O)C#Cc1ccc(C(=O)NC(CSCc2ccccc2)C(=O)O)s1 (stereo not shown) [CBK267705] ?
98.4

New cases:
Bench note: what viability at 28.5 h, 10 µM did COCCNc1nc(-c2cccc(Cl)c2Cl)ccc1C(=O)N(C)CCN(C)C [CBK105922] show?
98.3

Bench note: what viability at 28.5 h, 10 µM did COc1nc(NCCc2ccc(OC)c(OC)c2)nc(OC)n1 [CBK266304] show?
94.4

Would you kindly share the measured viability at 28.5 h, 10 µM for O=C(CNS(=O)(=O)c1cccc(Cl)c1)Nc1ccc(-c2nc3ccccc3s2)cc1 [CBK267178] ?
97.5

Which viability at 28.5 h, 10 µM reading was recorded for the molecule CN(C)CCOc1ncccc1OCCO [CBK000655F] ?
98.2

Item O=C1NC2(CCc3ccccc31)CCN(C(=O)c1cccnc1)C2 (stereo not shown) [CBK283335] has what recorded viability at 28.5 h, 10 µM?
96.5

Field request: viability at 28.5 h, 10 µM | item: CCN(CC)C(=O)C1C2CCC3(CC(=O)c4ccccc4O3)C21 (stereo not shown) [CBK284923]
105

// viability at 28.5 h, 10 µM lookup, key: Cc1ccc(OCc2ccc(Cl)nc2)c(Br)c1 [CBK002842]
75.8
